Tested on: Streptococcus pyogenes
METHOD DESCRIPTION: Antibacterial activity against macrolide-resistant Streptococcus pyogenes 237 harboring mutation in L4 ribosomal protein after 43 passages and 10 compound-free subculturing by retest method
Flag rule - MIC less than 0.5 µg/mL flags 1; the remaining entries get -1.

Study these solved cases before continuing.
MOLECULE	DISCRETE LABEL
CC[C@H]1OC(=O)[C@H](C)C(=O)[C@H](C)[C@@H](O[C@@H]2O[C@H](C)C[C@H](N(C)C)[C@H]2O)[C@](C)(OC)C[C@@H](C)C(=O)[C@H](C)[C@H]2N(CCCCn3cnc(-c4cccnc4)c3)C(=O)O[C@]12C [TELITHROMYCIN]	1
CCC[C@@H]1C[C@@H](C(=O)N[C@@H]([C@H]2O[C@H](SC)[C@H](O)[C@@H](O)[C@H]2O)[C@H](C)Cl)N(C)C1 [CLINDAMYCIN]	-1
CC[C@H]1OC(=O)[C@@](C)(F)C(=O)[C@H](C)[C@@H](O[C@@H]2O[C@H](C)C[C@H](N(C)C)[C@H]2O)[C@](C)(OC)C[C@@H](C)C(=O)[C@H](C)[C@H]2N(CCCCn3cc(-c4cccc(N)c4)nn3)C(=O)O[C@]12C [SOLITHROMYCIN]	1

Query molecule follows.
Ask | Record CC[C@H]1OC(=O)[C@H](C)[C@@H](O[C@H]2C[C@@](C)(OC)[C@@H](O)[C@H](C)O2)[C@H](C)[C@@H](O[C@@H]2O[C@H](C)C[C@H](N(C)C)[C@H]2O)[C@](C)(O)C[C@@H](C)CN(C)[C@H](C)[C@@H](O)[C@]1(C)O [AZITHROMYCIN] : is its MIC strictly below 0.5 µg/mL?
Reply | -1

###

Measured MIC50, listed per entry for reference.
System: Streptococcus pyogenes
METHOD DESCRIPTION: Antibacterial activity against macrolide-susceptible Streptococcus pyogenes after overnight incubation by agar dilution method
Type: functional
Numeric answer plus unit only.

Below are worked cases with known answers.
QUERY SMILES	MIC50
CC1(C)S[C@@H]2[C@H](NC(=O)Cc3ccccc3)C(=O)N2[C@H]1C(=O)O	0.015 µg/mL
C[C@H]1COc2c(N3CCN(C)CC3)c(F)cc3c(=O)c(C(=O)O)cn1c23.C[C@H]1COc2c(N3CCN(C)CC3)c(F)cc3c(=O)c(C(=O)O)cn1c23.O	0.5 µg/mL
CC[C@H]1OC(=O)[C@H](C)[C@@H](O[C@H]2C[C@@](C)(OC)[C@@H](O)[C@H](C)O2)[C@H](C)[C@@H](O[C@@H]2O[C@H](C)C[C@H](N(C)C)[C@H]2O)[C@](C)(OC)C[C@@H](C)C(=O)[C@H](C)[C@@H](O)[C@]1(C)O	0.03 µg/mL

Short answer for CC[C@H]1OC(=O)[C@H](C)C(=O)[C@H](C)[C@@H](O[C@@H]2O[C@H](C)C[C@H](N(C)C)[C@H]2O)[C@](C)(OC)C[C@@H](C)C(=O)[C@H](C)[C@H]2N(CCCCn3cnc(-c4cccnc4)c3)C(=O)O[C@]12C : MIC50 was 0.06 µg/mL

###

Tested on: Streptococcus pneumoniae
METHOD DESCRIPTION: Antibacterial activity against macrolide-susceptible Streptococcus pneumoniae 1077 after 49 passages and 10 compound-free subculturing by retest method
Format: functional
ENDPOINT NAME: MIC (µg/mL)
Give just the number in µg/mL; leave the unit off.

MIC on Streptococcus pneumoniae for CC[C@H]1OC(=O)[C@@](C)(F)C(=O)[C@H](C)[C@@H](O[C@@H]2O[C@H](C)C[C@H](N(C)C)[C@H]2O)[C@](C)(OC)C[C@@H](C)C(=O)[C@H](C)[C@H]2N(CCCCn3cc(-c4cccc(N)c4)nn3)C(=O)O[C@]12C is 0.06

###

System: Streptococcus pneumoniae
METHOD DESCRIPTION: Antibacterial activity against macrolide-resistant Streptococcus pneumoniae 3009 harboring mutation in 23S rRNA after overnight incubation by agar dilution method
Format: functional
Measured MIC, listed per entry for reference.
Give just the number in µg/mL; leave the unit off.

QUERY SMILES	MIC (µg/mL)
CC[C@H]1OC(=O)[C@H](C)C(=O)[C@H](C)[C@@H](O[C@@H]2O[C@H](C)C[C@H](N(C)C)[C@H]2O)[C@](C)(OC)C[C@@H](C)C(=O)[C@H](C)[C@H]2N(CCCCn3cnc(-c4cccnc4)c3)C(=O)O[C@]12C	0.016
CCC[C@@H]1C[C@@H](C(=O)N[C@@H]([C@H]2O[C@H](SC)[C@H](O)[C@@H](O)[C@H]2O)[C@H](C)Cl)N(C)C1	1
CC[C@H]1OC(=O)[C@H](C)[C@@H](O[C@H]2C[C@@](C)(OC)[C@@H](O)[C@H](C)O2)[C@H](C)[C@@H](O[C@@H]2O[C@H](C)C[C@H](N(C)C)[C@H]2O)[C@](C)(OC)C[C@@H](C)C(=O)[C@H](C)[C@@H](O)[C@]1(C)O	16

# next compound below
MIC on Streptococcus pneumoniae for CC[C@H]1OC(=O)[C@@](C)(F)C(=O)[C@H](C)[C@@H](O[C@@H]2O[C@H](C)C[C@H](N(C)C)[C@H]2O)[C@](C)(OC)C[C@@H](C)C(=O)[C@H](C)[C@H]2N(CCCCn3cc(-c4cccc(N)c4)nn3)C(=O)O[C@]12C is 0.016

###

Tested on: Streptococcus pneumoniae
METHOD DESCRIPTION: Antibacterial activity against quinolone-susceptible Streptococcus pneumoniae after overnight incubation by agar dilution method
Format: functional
Measured MIC90, listed per entry for reference.

MOLECULE	TESTED TARGET	RESULT
CC[C@H]1OC(=O)[C@H](C)[C@@H](O[C@H]2C[C@@](C)(OC)[C@@H](O)[C@H](C)O2)[C@H](C)[C@@H](O[C@@H]2O[C@H](C)C[C@H](N(C)C)[C@H]2O)[C@](C)(OC)C[C@@H](C)C(=O)[C@H](C)[C@@H](O)[C@]1(C)O [CLARITHROMYCIN]	Streptococcus pneumoniae	> 64 µg/mL

MIC90 on Streptococcus pneumoniae for CC[C@H]1OC(=O)[C@H](C)[C@@H](O[C@H]2C[C@@](C)(OC)[C@@H](O)[C@H](C)O2)[C@H](C)[C@@H](O[C@@H]2O[C@H](C)C[C@H](N(C)C)[C@H]2O)[C@](C)(O)C[C@@H](C)C(=O)[C@H](C)[C@@H](O)[C@]1(C)O [ERYTHROMYCIN] is > 64 µg/mL

MIC90 on Streptococcus pneumoniae for CCC[C@@H]1C[C@@H](C(=O)N[C@@H]([C@H]2O[C@H](SC)[C@H](O)[C@@H](O)[C@H]2O)[C@H](C)Cl)N(C)C1 [CLINDAMYCIN] is > 64 µg/mL

###

Tested on: Streptococcus pneumoniae
METHOD DESCRIPTION: Antibacterial activity against macrolide-resistant Streptococcus pneumoniae 24 harboring erm(B) gene after overnight incubation by agar dilution method
Type: functional
ENDPOINT NAME: MIC (µg/mL)
Give just the number in µg/mL; leave the unit off.

QUERY SMILES	MIC [µg/mL]
CC[C@H]1OC(=O)[C@@](C)(F)C(=O)[C@H](C)[C@@H](O[C@@H]2O[C@H](C)C[C@H](N(C)C)[C@H]2O)[C@](C)(OC)C[C@@H](C)C(=O)[C@H](C)[C@H]2N(CCCCn3cc(-c4cccc(N)c4)nn3)C(=O)O[C@]12C	0.004

MIC on Streptococcus pneumoniae for CC[C@H]1OC(=O)[C@H](C)C(=O)[C@H](C)[C@@H](O[C@@H]2O[C@H](C)C[C@H](N(C)C)[C@H]2O)[C@](C)(OC)C[C@@H](C)C(=O)[C@H](C)[C@H]2N(CCCCn3cnc(-c4cccnc4)c3)C(=O)O[C@]12C is 0.25

###

Measured MIC, listed per entry for reference.
Tested on: Streptococcus pneumoniae
METHOD DESCRIPTION: Antibacterial activity against macrolide-susceptible Streptococcus pneumoniae 7127 harboring S20N mutation in L4 ribosomal protein and A105V mutation in L22 ribosomal protein after 15 passages and 10 compound-free subculturing by retest method
Assay type: functional
Give just the number in µg/mL; leave the unit off.

QUERY SMILES	MIC [µg/mL]
CCC[C@@H]1C[C@@H](C(=O)N[C@@H]([C@H]2O[C@H](SC)[C@H](O)[C@@H](O)[C@H]2O)[C@H](C)Cl)N(C)C1	1

Short answer for CC[C@H]1OC(=O)[C@@](C)(F)C(=O)[C@H](C)[C@@H](O[C@@H]2O[C@H](C)C[C@H](N(C)C)[C@H]2O)[C@](C)(OC)C[C@@H](C)C(=O)[C@H](C)[C@H]2N(CCCCn3cc(-c4cccc(N)c4)nn3)C(=O)O[C@]12C : MIC was 0.008

Short answer for CC[C@H]1OC(=O)[C@H](C)[C@@H](O[C@H]2C[C@@](C)(OC)[C@@H](O)[C@H](C)O2)[C@H](C)[C@@H](O[C@@H]2O[C@H](C)C[C@H](N(C)C)[C@H]2O)[C@](C)(OC)C[C@@H](C)C(=O)[C@H](C)[C@@H](O)[C@]1(C)O : MIC was 16

Short answer for CC[C@H]1OC(=O)[C@H](C)C(=O)[C@H](C)[C@@H](O[C@@H]2O[C@H](C)C[C@H](N(C)C)[C@H]2O)[C@](C)(OC)C[C@@H](C)C(=O)[C@H](C)[C@H]2N(CCCCn3cnc(-c4cccnc4)c3)C(=O)O[C@]12C : MIC was 0.008
